Field: cell viability. Provide a value for each of the molecules that follow.
Test system: Caco-2
Experiment: cell viability relative to DMSO; higher = less toxic
Conditions: 72 h; 10000 nM
Answers are plain numbers, in %.

Field: example entries. Status: answers known.
C[C@H]1O[C@@H](Oc2c(-c3cc(O)c(O)c(O)c3)oc3cc(O)cc(O)c3c2=O)[C@@H](O)[C@@H](O)[C@@H]1O : 96
CCCCC(=O)NCCc1c(Cc2ccccc2)[nH]c2ccccc12 : 96
O=C(Nc1ccc(S(=O)(=O)C(F)(F)F)cc1)C1=CCN(c2ncccc2C(F)(F)F)CC1 : 62.4
CNC(=O)c1c(I)c(C(=O)NCC(=O)Nc2c(I)c(C(=O)O)c(I)c(C(=O)NCCO)c2I)c(I)c(N(C)C(C)=O)c1I : 103
CCCCC(=O)O[C@]1(C(=O)CO)[C@@H](C)C[C@H]2[C@@H]3CCC4=CC(=O)C=C[C@]4(C)[C@@]3(F)[C@@H](O)C[C@@]21C [BETAMETHASONE VALERATE] : 96.1

-- ask I have this molecule here, `CCN(CCCOc1ccc2c(Nc3cc(CC(=O)Nc4cccc(F)c4)[nH]n3)ncnc2c1)CCOP(=O)(O)O` , and I need its recorded cell viability.
-- reply 82.9
